molecular target: hAT1R (Homo sapiens, UniProt P30556); assay: BRET β-arrestin2 biosensor assay, higher receptor expression (hAT1R 5 ng/well), HEK293 cells; format: cell-based; details: High AT1R Expression
Sequence (P30556 whole entry): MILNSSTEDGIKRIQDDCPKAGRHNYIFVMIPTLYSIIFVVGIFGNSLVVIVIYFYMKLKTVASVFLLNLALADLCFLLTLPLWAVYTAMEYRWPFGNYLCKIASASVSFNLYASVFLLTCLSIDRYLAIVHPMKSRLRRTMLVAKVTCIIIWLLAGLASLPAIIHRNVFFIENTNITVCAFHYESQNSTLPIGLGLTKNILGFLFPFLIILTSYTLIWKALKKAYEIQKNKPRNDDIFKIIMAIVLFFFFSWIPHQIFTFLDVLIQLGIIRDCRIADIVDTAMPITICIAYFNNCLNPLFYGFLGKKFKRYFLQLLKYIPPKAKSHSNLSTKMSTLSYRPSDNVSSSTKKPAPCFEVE
Parameter: EC50. Scope: all listed entries.
Reply with just the number (in nM).

Example results:
{"columns": ["molecule", "testSystem", "measurementUnits", "EC50"],
 "data": [
  ["CCCc1nc(C(C)(C)O)c(C(=O)OCC)n1Cc1ccc(-c2cc(-c3ccccc3)ccc2-c2nn[nH]n2)cc1 [Example 401]", "hAT1R (Homo sapiens, UniProt P30556)", "nM", 256],
  ["CCCCC1=NC2(CCCC2)C(=O)N1Cc1ccc(-c2cc(N3CC(C)(C)c4ccccc43)ccc2-c2nn[nH]n2)cc1 [Example 107]", "hAT1R (Homo sapiens, UniProt P30556)", "nM", 226],
  ["CCCc1nc(CC)c(C(=O)O)n1Cc1ccc(-c2cc(-c3ccccc3)ccc2-c2nn[nH]n2)cc1 [Example 396]", "hAT1R (Homo sapiens, UniProt P30556)", "nM", 6.4],
  ["CCCCC(=O)N(Cc1ccc(-c2cc(-c3cc(F)cc(F)c3)ccc2-c2nn[nH]n2)cc1)[C@H](C(=O)O)C(C)C [Example 438]", "hAT1R (Homo sapiens, UniProt P30556)", "nM", 34.8],
  ["CCCCc1ncc(C(=O)N(C)C)n1Cc1ccc(-c2cc(-c3ccccc3)ccc2-c2nn[nH]n2)cc1 [Example 383]", "hAT1R (Homo sapiens, UniProt P30556)", "nM", 309],
  ["CCCCC1=NC2(CCCC2)C(=O)N1Cc1ccc(-c2cc(-c3ccccc3)ccc2C(=O)O)cc1 [Example 145]", "hAT1R (Homo sapiens, UniProt P30556)", "nM", 64.4]
]}

Form: Entry = CCCCc1nc(Cl)c(C(=O)O)n1Cc1ccc(-c2cc(N3CCc4ccccc43)ccc2-c2noc(=O)[nH]2)cc1 [Example 406] | System = hAT1R (Homo sapiens, UniProt P30556) | EC50 = ____
10.6

* * *

target: hAT1R (Homo sapiens, UniProt P30556); test: BRET β-arrestin2 biosensor assay, higher receptor expression (hAT1R 5 ng/well), HEK293 cells; type: cell-based; conditions: High AT1R Expression
Labelling field: enter y if recorded EC50 is less than 20 nM. Enter n if it equals or exceeds that cut-off.

Solved cases (5 shown):
{"columns": ["compound", "testSystem", "class"],
 "data": [
  ["CCc1nc2c(C)cc(C)nc2n1Cc1ccc(-c2cc(Oc3cccc(Cl)c3)ccc2-c2nnn[nH]2)cc1 [Example 206]", "hAT1R (Homo sapiens, UniProt P30556)", "y"],
  ["CCc1nc2c(C)cc(C)nc2n1Cc1ccc(-c2cc(-c3ccccc3)ccc2OCC(=O)O)cc1 [Example 69]", "hAT1R (Homo sapiens, UniProt P30556)", "n"],
  ["CCCCC(=O)N(Cc1ccc(-c2cc(-c3ccccc3)ccc2-c2nn[nH]n2)cc1)C1(C(=O)O)CCCCCC1 [Example 277]", "hAT1R (Homo sapiens, UniProt P30556)", "n"],
  ["CCc1nc2c(C)cc(C)nc2n1Cc1ccc(-c2cc(C3CCCCO3)ccc2-c2nn[nH]n2)cc1 (single isomer, unassigned) [Example 78]", "hAT1R (Homo sapiens, UniProt P30556)", "y"],
  ["CCCC(=O)N(Cc1ccc(-c2cc(-c3ccccc3)ccc2-c2nn[nH]n2)nc1)[C@H](C(=O)O)C(C)C [Example 432]", "hAT1R (Homo sapiens, UniProt P30556)", "n"]
]}

Does the reported EC50 of CCc1nc2c(C)cc(C)nc2n1Cc1ccc(-c2cc(-c3ccccc3C(C)C)ccc2-c2nn[nH]n2)cc1 [Example 3] stay below 20 nM?
y

hey, is EC50 for CCCCc1nc(Cl)c(C(=O)O)n1Cc1ccc(-c2cc(-c3ccccc3)ccc2-c2noc(=O)[nH]2)cc1 [Example 404] lower than 20 nM or not?
y
